- Test system: ATP;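 also: ATP exposure 15 min at 22 °C before imaging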
- Test Details: switch fluorescence ratio, 500 uM ATP over buffer (Cy3 cluster intensity, sum of 5 cycles each) (fold (ratio)); higher = stronger signal-on switching upon ATP binding; sequences stand for … in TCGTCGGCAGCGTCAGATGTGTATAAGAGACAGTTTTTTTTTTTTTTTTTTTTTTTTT…TC
- Run Parameters: aptamer strand: ATP DNA aptamer (quencher-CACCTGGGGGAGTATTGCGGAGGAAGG + anchor), 100 nM annealed; ATP concentration: 500 uM
Reported Property: switch fluorescence ratio
API note: the answer field is a bare number with no unit suffix.

INSERT INTO measurements (seq, target_or_system, reading) VALUES
  ('TACCGTTGGG', 'ATP', 1.01);

For the next question, use this sequence.
In plain terms, CGTTTGCCGT has a documented switch fluorescence ratio of 0.985

---

- System: ATP;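 also: ATP exposure 15 min at 22 °C before imaging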
- Test Details: switch fluorescence ratio, 500 uM ATP over buffer (Cy3 cluster intensity, sum of 5 cycles each) (fold (ratio)); higher = stronger signal-on switching upon ATP binding; sequences stand for … in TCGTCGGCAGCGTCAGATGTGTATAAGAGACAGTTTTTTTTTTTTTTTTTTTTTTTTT…TC
- Run Parameters: aptamer strand: ATP DNA aptamer (quencher-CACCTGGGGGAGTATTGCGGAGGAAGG + anchor), 100 nM annealed; ATP concentration: 500 uM
Let's look at some sequences and their measured switch fluorescence ratio.
API note: the answer field is a bare number with no unit suffix.

# example entries with known answers
INSERT INTO assay_data (seq, target_or_system, reading) VALUES
  ('GTGATTTGGT', 'ATP', 0.995),
  ('TTGAGGCGGA', 'ATP', 1.04),
  ('GAGCTTTTGG', 'ATP', 1.03),
  ('TGGAGGGGCA', 'ATP', 1.03);

In plain terms, TGATGGGTTA has a documented switch fluorescence ratio of 0.962

In plain terms, AGTTTGGGT has a documented switch fluorescence ratio of 0.985

In plain terms, AAGGATGGCC has a documented switch fluorescence ratio of 1.01

In plain terms, TAGGTAGGGT has a documented switch fluorescence ratio of 1.04

In plain terms, TTTATGGCAT has a documented switch fluorescence ratio of 1.02

In plain terms, TCAAGGTGTT has a documented switch fluorescence ratio of 1.15

In plain terms, TATTTCATTT has a documented switch fluorescence ratio of 1.06

---

- Test system: ATP;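 also: ATP exposure 15 min at 22 °C before imaging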
- Test Details: switch fluorescence ratio, 500 uM ATP over buffer (Cy3 cluster intensity, sum of 5 cycles each) (fold (ratio)); higher = stronger signal-on switching upon ATP binding; sequences stand for … in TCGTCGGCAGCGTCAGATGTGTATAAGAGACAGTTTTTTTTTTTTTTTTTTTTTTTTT…TC
- Run Parameters: aptamer strand: ATP DNA aptamer (quencher-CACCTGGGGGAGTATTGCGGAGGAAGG + anchor), 100 nM annealed; ATP concentration: 500 uM
Reported Property: switch fluorescence ratio

In plain terms, GCTAGTTGGG has a documented switch fluorescence ratio of 1

In plain terms, ACATCGGGAT has a documented switch fluorescence ratio of 1.02

In plain terms, TTTCATGGTG has a documented switch fluorescence ratio of 1.05

In plain terms, AGTGTAAAGG has a documented switch fluorescence ratio of 0.991

---

Let's look at some sequences and their measured switch fluorescence ratio.
- Test system: ATP;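 also: ATP exposure 15 min at 22 °C before imaging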
- Test Details: switch fluorescence ratio, 500 uM ATP over buffer (Cy3 cluster intensity, sum of 5 cycles each) (fold (ratio)); higher = stronger signal-on switching upon ATP binding; sequences stand for … in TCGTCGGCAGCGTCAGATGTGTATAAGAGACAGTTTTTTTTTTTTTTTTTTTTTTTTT…TC
- Run Parameters: aptamer strand: ATP DNA aptamer (quencher-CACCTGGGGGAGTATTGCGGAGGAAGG + anchor), 100 nM annealed; ATP concentration: 500 uM
API note: the answer field is a bare number with no unit suffix.

INSERT INTO results (seq, reading) VALUES
  ('CTTCTTTTGG', 0.996),
  ('GGAATTTAGG', 1),
  ('GAAGTTCGTG', 1.01);

For the next question, use this sequence.
Entry AGTGGCACCG ; assay system ATP; switch fluorescence ratio recorded at 1.01

---

- Tested on: ATP;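 also: ATP exposure 15 min at 22 °C before imaging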
- Test Details: switch fluorescence ratio, 500 uM ATP over buffer (Cy3 cluster intensity, sum of 5 cycles each) (fold (ratio)); higher = stronger signal-on switching upon ATP binding; sequences stand for … in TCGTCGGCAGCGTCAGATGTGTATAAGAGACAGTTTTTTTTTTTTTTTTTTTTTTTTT…TC
- Run Parameters: aptamer strand: ATP DNA aptamer (quencher-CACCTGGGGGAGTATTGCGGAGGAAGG + anchor), 100 nM annealed; ATP concentration: 500 uM
Reported Property: switch fluorescence ratio
API note: the answer field is a bare number with no unit suffix.

# example entries with known answers
INSERT INTO assay_data (seq, reported_property, reading) VALUES
  ('TTGTGATAGT', 'switch fluorescence ratio', 1),
  ('GGGTTGCTGG', 'switch fluorescence ratio', 1),
  ('CTATCTCTTG', 'switch fluorescence ratio', 1),
  ('ATTTGCTGTG', 'switch fluorescence ratio', 0.992),
  ('TAGAGGCGTT', 'switch fluorescence ratio', 0.986),
  ('GGGTTTGTAC', 'switch fluorescence ratio', 1.13),
  ('GGGGTAGTGG', 'switch fluorescence ratio', 0.981),
  ('ATTTGGGTAG', 'switch fluorescence ratio', 1.01);

In plain terms, TGTGTATGGC has a documented switch fluorescence ratio of 1.12

In plain terms, AACCTTTGTT has a documented switch fluorescence ratio of 1.06

In plain terms, AGGGGTTTTG has a documented switch fluorescence ratio of 0.989

In plain terms, GATTGTTCTC has a documented switch fluorescence ratio of 0.981

In plain terms, TAGAGGGGGT has a documented switch fluorescence ratio of 0.998

In plain terms, GGTATTGGTT has a documented switch fluorescence ratio of 0.987

In plain terms, TATTTAGAGG has a documented switch fluorescence ratio of 1.01

In plain terms, AATTACCTCG has a documented switch fluorescence ratio of 1.04

In plain terms, GGGAGTTGGG has a documented switch fluorescence ratio of 1.02

In plain terms, TTATGTCAAA has a documented switch fluorescence ratio of 1.01

In plain terms, TGAGTTGGCT has a documented switch fluorescence ratio of 1.02

In plain terms, ACTGTACCGG has a documented switch fluorescence ratio of 1.45

---

- Tested on: ATP;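 also: ATP exposure 15 min at 22 °C before imaging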
- Test Details: switch fluorescence ratio, 500 uM ATP over buffer (Cy3 cluster intensity, sum of 5 cycles each) (fold (ratio)); higher = stronger signal-on switching upon ATP binding; sequences stand for … in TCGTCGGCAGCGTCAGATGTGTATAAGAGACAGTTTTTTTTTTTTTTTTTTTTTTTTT…TC
- Run Parameters: aptamer strand: ATP DNA aptamer (quencher-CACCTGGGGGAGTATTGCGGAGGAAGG + anchor), 100 nM annealed; ATP concentration: 500 uM
Reported Property: switch fluorescence ratio
API note: the answer field is a bare number with no unit suffix.

# example entries with known answers
INSERT INTO assay_data (seq, reported_property, reading) VALUES
  ('TTAAAAAACG', 'switch fluorescence ratio', 1.04),
  ('TTATACGTAT', 'switch fluorescence ratio', 1.04);

In plain terms, TTTCTAGGTC has a documented switch fluorescence ratio of 1.02

In plain terms, ATTTGAATTG has a documented switch fluorescence ratio of 1.02

In plain terms, CCGGGGAATG has a documented switch fluorescence ratio of 1.04

In plain terms, CATAGGTCGG has a documented switch fluorescence ratio of 0.974

In plain terms, GCTAGGGTGG has a documented switch fluorescence ratio of 0.994

In plain terms, ACAGTGTGTT has a documented switch fluorescence ratio of 0.979

In plain terms, GGGGGATTAA has a documented switch fluorescence ratio of 1

---

- System: ATP;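 also: ATP exposure 15 min at 22 °C before imaging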
- Test Details: switch fluorescence ratio, 500 uM ATP over buffer (Cy3 cluster intensity, sum of 5 cycles each) (fold (ratio)); higher = stronger signal-on switching upon ATP binding; sequences stand for … in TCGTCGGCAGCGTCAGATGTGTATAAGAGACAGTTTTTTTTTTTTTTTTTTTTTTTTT…TC
- Run Parameters: aptamer strand: ATP DNA aptamer (quencher-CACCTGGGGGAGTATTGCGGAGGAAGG + anchor), 100 nM annealed; ATP concentration: 500 uM
Reported Property: switch fluorescence ratio

# example entries with known answers
INSERT INTO assay_data (seq, reading) VALUES
  ('TTGAGAGCAA', 1.72),
  ('TGGTTTTGT', 1.03),
  ('GGTTAGCGG', 0.96),
  ('ACGTTGGTAA', 1.02),
  ('GTTTTGGCTG', 1.02);

In plain terms, CTAAGTTTGG has a documented switch fluorescence ratio of 1.02

In plain terms, TTAAGAAGAC has a documented switch fluorescence ratio of 1.04

In plain terms, ATGTTCAACT has a documented switch fluorescence ratio of 0.998

In plain terms, GGCAGTCGTA has a documented switch fluorescence ratio of 0.955

In plain terms, AAAGTGGTGG has a documented switch fluorescence ratio of 1.02

In plain terms, GGGCGATGCA has a documented switch fluorescence ratio of 1.02

In plain terms, GATTTTGGTT has a documented switch fluorescence ratio of 0.998

In plain terms, AGTGACGCGT has a documented switch fluorescence ratio of 1.01
